subject-of-test: T1, rat µ opioid receptor (rat, UniProt P33535 1-398)
T1 construct: whole, on cells; membrane preparations of the transfected cells were used; also called rMOR; MOR
method-notes: competition vs [3H]DAMGO, rMOR cell membranes
Square brackets hold non-standard residues; d marks the D form. Ends that are not written are not given here. O‑Bzl(CF3)2 = C-terminal bis(trifluoromethyl)benzyl ester; Abu = CC[C@H](N)C(=O)O
Checkbox rule: Ki lower than 10 nM = class 1; Ki not lower than 10 nM = class 0.

Take a look at these entries with their results.
Q: Item Y[dA]GFPW-{O‑Bzl(CF3)2} (also called NP39) [Tyr-DAla-Gly-Phe-Pro-Trp-O-Bzl(CF3)2] : Ki beneath 10 nM, strictly?
A: class 0

Q: Determine if Y[dA]GF[Abu]W-{O‑Bzl(CF3)2} (also called NP33) [Tyr-DAla-Gly-Phe-α-Abu-Trp-O-Bzl(CF3)2] shows Ki strictly lower than 10 nM.
A: class 0

---
Q: Dear reviewer, please state whether Y[dA]GF[dA]W-{O‑Bzl(CF3)2} (also called NP40) [Tyr-DAla-Gly-Phe-D-Ala-Trp-O-Bzl(CF3)2] has Ki strictly beneath 10 nM.
A: class 1

Q: Dear colleague, could you confirm whether Ki of Y[dA]GFMW-{O‑Bzl(CF3)2} (also called NP38) [Tyr-DAla-Gly-Phe-Met-Trp-O-Bzl(CF3)2] falls below 10 nM? Thanks.
A: class 1
